// provenance: patent US12162884B2

Measured solubility at 24 h by item
# assay method text: Solubility studies in water, FaSSIF, FeSSIF and FaSSGF (excess solids in 5 mL medium at 37° C., HPLC; pH, XRPD and NMR of remaining material)
# Format: physicochemical
# details: FeSSIF, 37 °C, thermodynamic from solid, 24 hours
Field: value (include unit after the number)

[
  {
    "compound": "CC(C)c1cnn2c(N[C@@H]3CCc4[nH]c5ccccc5c4C3)nc(-c3cncc(F)c3)nc12.CS(=O)(=O)O [Compound 3 Form B]",
    "experimental value": "160 µg/mL"
  }
]

Now consider a different compound.
response.value for CC(C)c1cnn2c(N[C@@H]3CCc4[nH]c5ccccc5c4C3)nc(-c3cncc(F)c3)nc12.CCS(=O)(=O)O [Compound 1 Form B] (field: solubility at 24 h) = 63 µg/mL

---

Measured % Area by item
# assay method text: Stability studies at 40° C./75% RH (HPLC)
# Assay type: physicochemical
# details: 1 Week, HPLC
# Procedure: Stability studies of compound A, Form B, Compound 1, Form B, Compound 2, Form A, Compound 3, Form B, and Compound 4, Form A was carried out at 40° C./75% RH. Samples were stored in loosely capped vials in a chamber containing a saturated NaCl solution to achieve approximately 75% RH within the chamber. The chamber was stored in a 40° C. oven. Samples were analyzed at Time 0, 1 week, 2 weeks, and 4 weeks using the HPLC parameters described above in Table 13.
Write the number in % Area without appending the unit.

[
  {
    "compound": "CC(C)c1cnn2c(N[C@@H]3CCc4[nH]c5ccccc5c4C3)nc(-c3cncc(F)c3)nc12.CS(=O)(=O)O [Compound 3 Form B]",
    "experimental value": 91.60
  },
  {
    "compound": "CC(C)c1cnn2c(N[C@@H]3CCc4[nH]c5ccccc5c4C3)nc(-c3cncc(F)c3)nc12.CCS(=O)(=O)O [Compound 1 Form B]",
    "experimental value": 99.59
  },
  {
    "compound": "CC(C)c1cnn2c(N[C@@H]3CCc4[nH]c5ccccc5c4C3)nc(-c3cncc(F)c3)nc12 [Compound 4 Form A]",
    "experimental value": 94.31
  }
]

response.value for CC(C)c1cnn2c(N[C@@H]3CCc4[nH]c5ccccc5c4C3)nc(-c3cncc(F)c3)nc12 [Compound 2 Form A] (field: % Area) = 99.20

response.value for CC(C)c1cnn2c(N[C@@H]3CCc4[nH]c5ccccc5c4C3)nc(-c3cncc(F)c3)nc12 [Compound A Form B] (field: % Area) = 99.22

---

# assay method text: Solubility studies in water, FaSSIF, FeSSIF and FaSSGF (excess solids in 5 mL medium at 37° C., HPLC; pH, XRPD and NMR of remaining material)
# Assay type: physicochemical
# details: FaSSGF, 37 °C, fassgf or other biorelevant, thermodynamic from solid, 120 minutes
Measured solubility at 120 min by item

[
  {
    "compound": "CC(C)c1cnn2c(N[C@@H]3CCc4[nH]c5ccccc5c4C3)nc(-c3cncc(F)c3)nc12.CCS(=O)(=O)O [Compound 1 Form B]",
    "experimental value": "< 0.1 µg/mL"
  },
  {
    "compound": "CC(C)c1cnn2c(N[C@@H]3CCc4[nH]c5ccccc5c4C3)nc(-c3cncc(F)c3)nc12 [Compound 2 Form A]",
    "experimental value": "< 0.1 µg/mL"
  }
]

Now consider a different compound.
response.value for CC(C)c1cnn2c(N[C@@H]3CCc4[nH]c5ccccc5c4C3)nc(-c3cncc(F)c3)nc12.CS(=O)(=O)O [Compound 3 Form B] (field: solubility at 120 min) = < 0.1 µg/mL
